- Test target: ErbB-3 receptor-Ig fusion (human) (UniProt P21860)
- Protocol notes: displacement of 125I-HRG-β1 177-244 from ErbB-3-Ig
Quantity: pEC50
One number for each entry, as −log10 of the molar value.

1) Trx-HRG-β1 146-244 Y224A fusion (ligand) DDDDKAYVSSESPIRISVSTEGANTSSSTSTSTTGTSHLVKCAEKEKTFCVNGGECFMVKDLSNPSRYLCKCPNEFTGDRCQNAVMASFYKHLGIEFMEAEELY | 6.47

**Query** Which pEC50 value belongs to Trx-HRG-β1 146-244 K200A fusion (ligand) DDDDKAYVSSESPIRISVSTEGANTSSSTSTSTTGTSHLVKCAEKEKTFCVNGGECFMVADLSNPSRYLCKCPNEFTGDRCQNYVMASFYKHLGIEFMEAEELY ?
**Result** 7.34

Data provenance is patent US6136558A.
